These data points were gathered from PubChem BioAssay (NCI).

Tested on: 786-0 renal
measurement description: NCI-60 one-dose screen, 48 h (100 = growth as untreated, 0 = no growth, -100 = all killed)
condition: 10 µM
This is part of a sample that, as a whole, favours compounds with a hit. Of some 83,000 tested, about 20% had one in any assay.
recorded endpoint: growth (%)
Dear colleague, please return just the value in %, with no unit written.

Sure, the documented growth for `O=S(=O)(Nc1ncccn1)c1ccc(-n2c(-c3ccc(Br)cc3)nc(-c3ccccc3)c2-c2ccccc2)cc1` is 34.5

Sure, the documented growth for `CN(CCF)c1ccc(/C=C/C(=O)c2ccc(N)cc2O)cc1` is 90.5

Sure, the documented growth for `COc1cc(/C=C/C(=O)c2ccc(S(=O)(=O)NCCNc3nc(Nc4ccc(F)cc4)nc(N(C)C)n3)cc2)cc(OC)c1OC` is -64.2

Sure, the documented growth for `O=C(CSc1nnc(-c2c[nH]c3ccccc23)n1-c1ccccc1)Nc1ccc(C(=O)/C=C/c2ccc(Br)cc2)cc1` is 94.8

Sure, the documented growth for `CC(=O)Oc1ccccc1C(=O)Oc1ccc(C(=O)/C=C/c2ccncc2)cc1` is 53.2

Sure, the documented growth for `COc1cccc(/C=N/NC(=O)c2ccc3nc(-c4ccc(Cl)cc4)[nH]c3c2)c1O` is -90.3

Sure, the documented growth for `COC[C@@H](CC(C)C)N=C1NC(=O)/C(=C/c2ccc3ncsc3c2)N1` is 23.5

Sure, the documented growth for C/C(=C\CSc1ccccc1C(=O)O)CCCC(C)CCCC(C)CCCC(C)C (centres undefined) is 67.3

Sure, the documented growth for `CN1CCc2c(sc3ncnc(N/N=C/c4cn(-c5ccccc5)nc4-c4ccc(Cl)cc4)c23)C1` is 25.3

* * *

Test system: OVCAR-3 ovarian
measurement description: NCI-60 one-dose screen, 48 h (100 = growth as untreated, 0 = no growth, -100 = all killed)
condition: 10 µM
About 83,000 compounds went through this panel and 20% of them were active in at least one assay; those are over-represented in the sample as a whole.
Listing of entries alongside the reported growth.
Dear colleague, please return just the value in %, with no unit written.

Given the molecule `CC(=C(c1ccc(OCCCN(C)C)cc1)c1ccc(OCCCN(C)C)cc1)c1ccccc1` and test system OVCAR-3 ovarian, the measured growth is -93.6

***
Given the molecule `N#Cc1ccc(-c2nn(-c3ccc(C(=O)O)cc3)cc2CNc2ccc(Cl)cc2)cc1` and test system OVCAR-3 ovarian, the measured growth is 70.3

Given the molecule `N#Cc1c(NC(=O)c2ccc(C(F)(F)F)cc2)sc2c1CCC(O)=C2` and test system OVCAR-3 ovarian, the measured growth is 18.8

Given the molecule CCOC(=O)C1=C(N)N(c2ccccc2)C2=C(C(=O)CC(C)(C)C2)C1c1ccccc1OC (stereo not given) and test system OVCAR-3 ovarian, the measured growth is 112

Given the molecule `COc1ccc(NC(=O)CSc2nnc(-c3ccc4nc(-c5ccc(Cl)cc5)[nH]c4c3)o2)cc1` and test system OVCAR-3 ovarian, the measured growth is 55.3

* * *

Listing of entries alongside the reported growth.
Test system: M14 melanoma
measurement description: NCI-60 one-dose screen, 48 h (100 = growth as untreated, 0 = no growth, -100 = all killed)
condition: 10 µM
About 83,000 compounds went through this panel and 20% of them were active in at least one assay; those are over-represented in the sample as a whole.
Dear colleague, please return just the value in %, with no unit written.

Answered examples (4):
Sure, the documented growth for `CN1CCN(c2ccc(Nc3nc(N4CCN(S(=O)(=O)c5ccc(Cl)cc5)CC4)c4sccc4n3)cc2)CC1` is -60.6

Sure, the documented growth for `O=c1[nH]c2ccccc2cc1CSc1ccc(Nc2nccc(-c3ccc4ccccc4c3)n2)cc1` is 69.8

Sure, the documented growth for `CC1(C)[C@@H](NCO)CC[C@]2(C)[C@H]3C(=O)C=C4[C@@H]5C[C@](C)(CO)CC[C@]5(C)CC[C@@]4(C)[C@]3(C)CC[C@@H]12` is 25.5

Sure, the documented growth for `O=C1NC(=NC23CC4CC(CC(C4)C2)C3)N/C1=C\c1ccc2ncsc2c1` is 42

Now for a further compound.
Sure, the documented growth for `COc1cnc2c(c1)C(=O)c1c-2n(CCCNC(C)C)c(=O)c2cc(OC)c(OC)cc12` is 45.3
